- assay-explanation: basal HepG2 mitochondrial membrane potential changes, profiling panel, cell-based, JC-1 fluorescence, 24 h, 100 nL compound (AID 1167); also: test concentration not given here
- measurement-context: higher = more signal
measurement-label: z-score

Would you please look over these solved cases?
O=C/C=C/c1ccc(/C=C/c2ccccc2)cc1 -0.228
CC(C)[Si]1(C(C)C)OCc2cc(C3CC3)nc(-c3ccccc3)c21 -0.012
O=[N+]([O-])c1ccc(C[n+]2ccc3ccc(O)cc3c2)o1 -1.43

Consider the record given below.
Exercise: Item Cc1ccc(S[C@]2(C(=O)NCCCN(C)C)CC(=O)N(C3CCCCC3)[C@@H]2c2ccc(CO)cc2I)cc1 has what recorded z-score?
Solution: 1.8
